target: CDK7/CyclinH/MAT1 (Homo sapiens, UniProt P50613); assay: Determination of CDK activity (Caliper mobility shift, FAM-P8 peptide): CDK7; assay type: biochemical; settings: CDK7/CyclinH/MAT1; read-out: CDK7 enzymatic inhibitory activity (IC50)
Sequence (P50613 whole entry): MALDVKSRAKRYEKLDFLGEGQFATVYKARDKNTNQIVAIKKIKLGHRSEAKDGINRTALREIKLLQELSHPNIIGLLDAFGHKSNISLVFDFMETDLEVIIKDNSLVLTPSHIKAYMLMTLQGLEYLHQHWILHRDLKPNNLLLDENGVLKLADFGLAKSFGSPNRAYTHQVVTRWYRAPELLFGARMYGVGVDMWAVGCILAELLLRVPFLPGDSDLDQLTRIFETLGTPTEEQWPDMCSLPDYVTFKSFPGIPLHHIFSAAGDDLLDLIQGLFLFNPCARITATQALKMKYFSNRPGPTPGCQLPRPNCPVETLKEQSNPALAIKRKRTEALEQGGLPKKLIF
Sequence (P51946 whole entry partner): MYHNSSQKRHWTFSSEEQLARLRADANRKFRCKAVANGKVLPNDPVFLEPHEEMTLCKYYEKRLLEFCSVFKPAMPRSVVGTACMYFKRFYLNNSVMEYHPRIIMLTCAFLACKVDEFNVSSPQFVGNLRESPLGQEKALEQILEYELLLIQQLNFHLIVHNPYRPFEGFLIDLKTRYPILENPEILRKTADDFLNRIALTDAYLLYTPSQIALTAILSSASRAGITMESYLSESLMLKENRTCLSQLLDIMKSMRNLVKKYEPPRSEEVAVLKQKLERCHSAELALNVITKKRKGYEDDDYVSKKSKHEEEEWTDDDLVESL
Sequence (P51948 whole entry partner): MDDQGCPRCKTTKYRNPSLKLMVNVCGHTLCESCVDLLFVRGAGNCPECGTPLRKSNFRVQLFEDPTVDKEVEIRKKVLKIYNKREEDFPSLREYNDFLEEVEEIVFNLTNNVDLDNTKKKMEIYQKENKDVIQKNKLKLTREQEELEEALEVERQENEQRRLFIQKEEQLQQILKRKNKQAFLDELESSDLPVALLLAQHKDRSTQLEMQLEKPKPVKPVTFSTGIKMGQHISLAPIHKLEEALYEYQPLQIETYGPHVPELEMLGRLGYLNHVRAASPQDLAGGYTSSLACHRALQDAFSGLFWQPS
pIC50: −log10 of the molar value.
Please go through the items and note down their pIC50.

Q) Return reported pIC50; argument: Cc1nc2c(F)cc(-c3nc(Nc4ccc([C@H](C)C5CCN(CCO)CC5)cn4)ncc3F)cc2n1C(C)C
A) 5.00 to 6.00

Q) Return reported pIC50; argument: Cc1nc2c(F)cc(-c3nc(Nc4ccc(C=C5CCN(C6CC6)CC5)cn4)ncc3F)cc2n1C(C)C
A) 5.00 to 6.00

Q) Return reported pIC50; argument: Cc1nc2c(F)cc(-c3nc(Nc4ccc([C@H](C)C5CCN(CC(F)(F)F)CC5)cn4)ncc3F)cc2n1C(C)C
A) 5.00 to 6.00

Q) Return reported pIC50; argument: Cc1nc2c(F)cc(-c3nc(Nc4ccc([C@@H](C)C5CCN(CC(F)(F)F)CC5)cn4)ncc3F)cc2n1C(C)C
A) 5.00 to 6.00

* * *

biological target: CDK7/CyclinH/MAT1 (Homo sapiens, UniProt P50613); test: Determination of CDK activity (Caliper mobility shift, FAM-P8 peptide): CDK7; format: biochemical; conditions: CDK7/CyclinH/MAT1; read-out: CDK7 enzymatic inhibitory activity (IC50)
Please go through the items and note down their IC50.

Q) Return reported IC50; argument: CC[C@H](c1ccc(Nc2ncc(F)c(-c3cc(F)c4nc(C)n(C(C)C)c4c3)n2)nc1)N1CCN(C)CC1
A) 1000 to 10000 nM

Q) Return reported IC50; argument: C=C(c1ccc(Nc2ncc(F)c(-c3cc(F)c4nc(C)n(C(C)C)c4c3)n2)nc1)N1CCN(CC)CC1
A) 1000 to 10000 nM

Q) Return reported IC50; argument: CCN1CCC(C(O)c2ccc(Nc3ncc(F)c(-c4cc(F)c5nc(C)n(C(C)C)c5c4)n3)nc2)CC1 (single isomer, unassigned) [Example 40]
A) 500 to 1000 nM

Q) Return reported IC50; argument: Cc1nc2c(F)cc(-c3nc(Nc4ccc([C@@H](C)C5CCN(C(C)C)CC5)cn4)ncc3F)cc2n1C(C)C (single isomer, unassigned)
A) 1000 to 10000 nM

Q) Return reported IC50; argument: CCN1CCC(C(C)c2ccc(Nc3ncc(F)c(-c4cc(F)c5nc(C)n(C(C)C)c5c4)n3)nc2)CC1 (single isomer, unassigned) [Example 17]
A) 1000 to 10000 nM

Q) Return reported IC50; argument: CCC(c1ccc(Nc2ncc(F)c(-c3cc(F)c4nc(C)n(C(C)C)c4c3)n2)nc1)N1CCN(CC)CC1 (single isomer, unassigned) [Example 3]
A) 1000 to 10000 nM

* * *

Please go through the items and note down their IC50.
molecular target: CDK9/cyclinTl (Homo sapiens); assay: Determination of CDK activity (Caliper mobility shift, FAM-P8 peptide): CDK9; type: biochemical; conditions: CDK9/cyclinTl; read-out: CDK9 enzymatic inhibitory activity (IC50)
Sequence (P50750 whole entry): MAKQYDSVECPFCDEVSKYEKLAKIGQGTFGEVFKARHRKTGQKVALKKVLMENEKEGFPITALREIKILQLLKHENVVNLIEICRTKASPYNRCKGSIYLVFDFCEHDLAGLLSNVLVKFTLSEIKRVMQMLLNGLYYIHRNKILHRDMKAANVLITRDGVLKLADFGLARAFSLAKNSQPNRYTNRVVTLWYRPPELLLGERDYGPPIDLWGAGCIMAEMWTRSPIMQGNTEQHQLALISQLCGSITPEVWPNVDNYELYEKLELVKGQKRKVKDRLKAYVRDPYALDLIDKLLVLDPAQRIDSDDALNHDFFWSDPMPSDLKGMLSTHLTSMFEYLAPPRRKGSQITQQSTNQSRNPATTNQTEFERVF
Sequence (O60563 whole entry partner): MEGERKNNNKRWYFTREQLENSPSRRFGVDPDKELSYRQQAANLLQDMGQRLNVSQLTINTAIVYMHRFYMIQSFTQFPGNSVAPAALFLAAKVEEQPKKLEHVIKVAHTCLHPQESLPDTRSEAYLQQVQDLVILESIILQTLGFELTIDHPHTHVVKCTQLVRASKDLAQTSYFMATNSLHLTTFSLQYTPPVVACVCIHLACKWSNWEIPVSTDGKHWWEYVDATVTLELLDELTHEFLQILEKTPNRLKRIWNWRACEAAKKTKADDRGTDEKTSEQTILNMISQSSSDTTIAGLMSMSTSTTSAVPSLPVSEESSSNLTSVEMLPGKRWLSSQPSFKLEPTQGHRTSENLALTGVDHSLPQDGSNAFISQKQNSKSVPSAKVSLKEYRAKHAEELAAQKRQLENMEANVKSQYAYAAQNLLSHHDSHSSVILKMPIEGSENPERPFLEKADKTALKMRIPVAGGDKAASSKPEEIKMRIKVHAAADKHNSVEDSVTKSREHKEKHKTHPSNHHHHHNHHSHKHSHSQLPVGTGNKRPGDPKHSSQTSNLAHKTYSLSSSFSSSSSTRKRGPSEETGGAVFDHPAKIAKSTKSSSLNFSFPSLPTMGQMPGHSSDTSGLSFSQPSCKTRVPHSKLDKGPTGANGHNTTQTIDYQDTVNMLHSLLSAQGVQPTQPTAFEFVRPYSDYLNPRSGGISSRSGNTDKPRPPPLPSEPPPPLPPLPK

Q) Return reported IC50; argument: Cc1nc2c(F)cc(-c3nc(Nc4ccc([C@@H](O)C5CCN(C)CC5)cn4)ncc3F)cc2n1C(C)C
A) 100 to 500 nM

Q) Return reported IC50; argument: Cc1nc2c(F)cc(-c3nc(Nc4ccc([C@H](C)C5CCN(CCO)CC5)cn4)ncc3F)cc2n1C(C)C
A) 100 to 500 nM

Q) Return reported IC50; argument: C=C(c1ccc(Nc2ncc(F)c(-c3cc(F)c4nc(C)n(C(C)C)c4c3)n2)nc1)C1CCNCC1
A) 100 to 500 nM

Q) Return reported IC50; argument: Cc1nc2c(F)cc(-c3nc(Nc4ccc(C=C5CCNCC5)cn4)ncc3F)cc2n1C(C)C
A) 100 to 500 nM

Q) Return reported IC50; argument: Cc1nc2c(F)cc(-c3nc(Nc4ccc([C@H](C)C5CCN(C6CC6)CC5)cn4)ncc3F)cc2n1C(C)C
A) 100 to 500 nM

Q) Return reported IC50; argument: CCN1CCC(C(OC(C)=O)c2ccc(Nc3ncc(F)c(-c4cc(F)c5nc(C)n(C(C)C)c5c4)n3)nc2)CC1 (single isomer, unassigned) [Example 71]
A) 100 to 500 nM

Q) Return reported IC50; argument: CCN1CCC(C(C)c2ccc(Nc3ncc(F)c(-c4cc(F)c5nc(C)n(C(C)C)c5c4)n3)nc2)CC1 (single isomer, unassigned) [Example 18]
A) 500 to 1000 nM

Q) Return reported IC50; argument: CC[C@H](c1ccc(Nc2ncc(F)c(-c3cc(F)c4nc(C)n(C(C)C)c4c3)n2)nc1)N1CCNCC1
A) 10000 to 100000 nM

Q) Return reported IC50; argument: Cc1nc2c(F)cc(-c3nc(Nc4ccc(C(C)C5CCNCC5)cn4)ncc3F)cc2n1C(C)C (single isomer, unassigned) [Example 19]
A) 100 to 500 nM

Q) Return reported IC50; argument: CCN1CCC(C(C)c2ccc(Nc3ncc(F)c(-c4cc(F)c5nc(C)n(C(C)C)c5c4)n3)nc2)CC1 (single isomer, unassigned) [Example 17]
A) 100 to 500 nM

Q) Return reported IC50; argument: CCC(c1ccc(Nc2ncc(F)c(-c3cc(F)c4nc(C)n(C(C)C)c4c3)n2)nc1)N1CCN(CC)CC1 (single isomer, unassigned) [Example 3]
A) 10000 to 100000 nM

Q) Return reported IC50; argument: C=C(c1ccc(Nc2ncc(F)c(-c3cc(F)c4nc(C)n(C(C)C)c4c3)n2)nc1)C1CCN(CC)CC1
A) < 100 nM

Q) Return reported IC50; argument: Cc1nc2c(F)cc(-c3nc(Nc4ccc([C@@H](C)C5CCN(C6CC6)CC5)cn4)ncc3F)cc2n1C(C)C
A) 100 to 500 nM

Q) Return reported IC50; argument: CCN1CCC(=Cc2ccc(Nc3ncc(F)c(-c4cc(F)c5nc(C)n(C(C)C)c5c4)n3)nc2)CC1
A) < 100 nM

* * *

experiment: Pharmacokinetic study in rats; assay type: in vivo, Sprague-Dawley rats; details: male Sprague-Dawley rats; iv 2 mg/kg and oral 5 mg/kg
readoutName: F
Your reply should be a number followed by the unit it is expressed in.

Q) Return reported F; argument: CCN1CCC(C(O)c2ccc(Nc3ncc(F)c(-c4cc(F)c5nc(C)n(C(C)C)c5c4)n3)nc2)CC1 (single isomer, unassigned)
A) 13.3%

Q) Return reported F; argument: CCN1CCC(C(C)c2ccc(Nc3ncc(F)c(-c4cc(F)c5nc(C)n(C(C)C)c5c4)n3)nc2)CC1 (single isomer, unassigned)
A) 66.9%

Q) Return reported F; argument: C=C(c1ccc(Nc2ncc(F)c(-c3cc(F)c4nc(C)n(C(C)C)c4c3)n2)nc1)C1CCN(CC)CC1
A) 43.7%

Q) Return reported F; argument: CCN1CCC(=Cc2ccc(Nc3ncc(F)c(-c4cc(F)c5nc(C)n(C(C)C)c5c4)n3)nc2)CC1
A) 57.6%

* * *

biological target: CDK9/cyclinTl (Homo sapiens); assay: Determination of CDK activity (Caliper mobility shift, FAM-P8 peptide): CDK9; format: biochemical; settings: read-out: CDK9 enzymatic inhibitory activity (IC50)
pIC50: −log10 of the molar value. Where a name gives a salt, the structure may show the parent alone.
readoutName: pIC50

Q) Return reported pIC50; argument: Cc1nc2c(F)cc(-c3nc(Nc4ccc(C(O)C5CCNCC5)cn4)ncc3F)cc2n1C(C)C (stereo not shown) [Example 42, hydrochloride]
A) 6.30 to 7.00

* * *

Please go through the items and note down their half-life.
experiment: Pharmacokinetic study in rats; assay type: in vivo, Sprague-Dawley rats; details: rat; male Sprague-Dawley rats, plasma; study dosed iv 2 mg/kg and oral 5 mg/kg, route of this parameter not given
Your reply should be a number followed by the unit it is expressed in.

Q) Return reported half-life; argument: CCN1CCC(C(C)c2ccc(Nc3ncc(F)c(-c4cc(F)c5nc(C)n(C(C)C)c5c4)n3)nc2)CC1 (single isomer, unassigned)
A) 9.38 h

Q) Return reported half-life; argument: C=C(c1ccc(Nc2ncc(F)c(-c3cc(F)c4nc(C)n(C(C)C)c4c3)n2)nc1)C1CCN(CC)CC1
A) 8.19 h

Q) Return reported half-life; argument: CCN1CCC(C(O)c2ccc(Nc3ncc(F)c(-c4cc(F)c5nc(C)n(C(C)C)c5c4)n3)nc2)CC1 (single isomer, unassigned)
A) 11.9 h

Q) Return reported half-life; argument: CCN1CCC(=Cc2ccc(Nc3ncc(F)c(-c4cc(F)c5nc(C)n(C(C)C)c5c4)n3)nc2)CC1
A) 11.7 h

* * *

Molecular target: CDK6/cycD3 (Homo sapiens)
Sequence (Q00534 whole entry): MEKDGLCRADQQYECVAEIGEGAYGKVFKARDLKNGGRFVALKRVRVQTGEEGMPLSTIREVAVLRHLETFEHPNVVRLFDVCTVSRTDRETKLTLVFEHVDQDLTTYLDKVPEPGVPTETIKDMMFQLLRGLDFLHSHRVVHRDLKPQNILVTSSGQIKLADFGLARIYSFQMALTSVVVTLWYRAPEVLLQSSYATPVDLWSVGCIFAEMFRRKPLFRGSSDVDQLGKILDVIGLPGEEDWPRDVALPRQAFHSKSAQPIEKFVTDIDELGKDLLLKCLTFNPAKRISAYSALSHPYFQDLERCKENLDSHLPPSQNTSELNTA
Sequence (P30281 whole entry partner): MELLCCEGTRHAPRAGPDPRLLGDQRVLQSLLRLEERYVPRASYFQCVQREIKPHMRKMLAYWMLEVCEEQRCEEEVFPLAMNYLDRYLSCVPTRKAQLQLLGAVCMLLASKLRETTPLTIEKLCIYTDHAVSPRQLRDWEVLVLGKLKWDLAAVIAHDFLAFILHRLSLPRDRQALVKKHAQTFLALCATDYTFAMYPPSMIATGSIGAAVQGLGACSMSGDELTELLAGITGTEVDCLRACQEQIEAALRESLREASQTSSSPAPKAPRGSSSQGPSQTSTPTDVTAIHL
Experiment: Determination of CDK activity (Caliper mobility shift, FAM-P8 peptide): CDK6
Assay type: biochemical
Details: CDK6/cycD3; read-out: CDK6 enzymatic inhibitory activity (IC50)
Method: In vitro, CDK (CDK4, CDK6, CDK1, CDK2, CDK7, and CDK9) kinase activity was tested by the following method. […] 5. Caliper Reading: Collect Data on Caliper. […]
Please go through the items and note down their IC50.

Q) Return reported IC50; argument: Cc1nc2c(F)cc(-c3nc(Nc4ccc([C@@H](O)C5CCNCC5)cn4)ncc3F)cc2n1C(C)C [Example 44]
A) 100 to 500 nM

Q) Return reported IC50; argument: COCCN1CCC([C@H](C)c2ccc(Nc3ncc(F)c(-c4cc(F)c5nc(C)n(C(C)C)c5c4)n3)nc2)CC1 (single isomer, unassigned) [Example 80]
A) 100 to 500 nM

Q) Return reported IC50; argument: CC(=C1CCN(C)CC1)c1ccc(Nc2ncc(F)c(-c3cc(F)c4nc(C)n(C(C)C)c4c3)n2)nc1 [Example 62]
A) 500 to 1000 nM

Q) Return reported IC50; argument: Cc1nc2c(F)cc(-c3nc(Nc4ccc([C@H](C)C5CCN(C(C)C)CC5)cn4)ncc3F)cc2n1C(C)C (single isomer, unassigned) [Example 73]
A) < 100 nM

Q) Return reported IC50; argument: CC(=C1CCNCC1)c1ccc(Nc2ncc(F)c(-c3cc(F)c4nc(C)n(C(C)C)c4c3)n2)nc1 [Example 61]
A) 500 to 1000 nM

Q) Return reported IC50; argument: Cc1nc2c(F)cc(-c3nc(Nc4ccc(C=C5CCN(C6CC6)CC5)cn4)ncc3F)cc2n1C(C)C [Example 66]
A) < 100 nM

Q) Return reported IC50; argument: C=C(c1ccc(Nc2ncc(F)c(-c3cc(F)c4nc(C)n(C(C)C)c4c3)n2)nc1)C1CCN(C)CC1 [Example 35]
A) 100 to 500 nM
